Parameter: self-splicing fitness (ln). Scope: all listed entries.
# Protocol Text: self-splicing fitness, log relative to wild type (ln ratio); higher = more splicing; Tetrahymena group I intron in knt gene, E. coli kanamycin selection, DiMSum; sequences stand for … in CUCUCU…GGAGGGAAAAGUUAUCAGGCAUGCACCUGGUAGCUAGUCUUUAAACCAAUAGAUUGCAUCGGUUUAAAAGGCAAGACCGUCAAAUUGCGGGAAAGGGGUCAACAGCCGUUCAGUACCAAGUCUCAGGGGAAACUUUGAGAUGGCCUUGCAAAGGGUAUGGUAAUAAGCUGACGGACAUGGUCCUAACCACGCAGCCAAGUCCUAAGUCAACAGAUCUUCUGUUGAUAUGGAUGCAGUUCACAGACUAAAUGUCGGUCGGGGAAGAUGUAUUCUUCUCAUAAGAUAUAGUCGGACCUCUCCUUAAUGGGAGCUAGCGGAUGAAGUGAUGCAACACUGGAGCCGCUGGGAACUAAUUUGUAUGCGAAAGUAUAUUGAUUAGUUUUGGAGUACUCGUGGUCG;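 also: selection with 25 µg/mL kanamycin versus none on LB agar overnight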
# Study Conditions: 37 °C

| Sequence Content | self-splicing fitness (ln) |
| --- | --- |
| AUUAAGCAAUAUUACGAAUA | -0.938 |
| CACGAGCAAUAUUACGUUAC | -1.25 |
| UCUCAGCAAUAUUACGGUUG | -2.41 |

Measured values drawn from the supplement of paper PMC7877785 for this set.
